system: ACHN; assay: NCI tumour cell line growth inhibition, 48 h
Active and inactive are the calls of the source. No stated cut-off is given here; in the data, active = GI50 up to about 1.1 µM and inactive = higher.
Outcome codes: 1.0 (active), 0.0 (inactive)

O=C1c2ccccc2-c2nnc(-c3ccc(Cl)cc3)cc21 = 0.0
CC(=O)OCC1OC(N2C(C)=C(C(C)=O)C(c3ccc(Cl)cc3)C(C#N)=C2S)C(OC(C)=O)C(OC(C)=O)C1OC(C)=O (stereo unspecified) = 0.0
O=C1O/C(=C\C=C\CO)C=C1/C=C/CO [LISSOCLINOLIDE] = 0.0
COC1CC(C)(N)C(O)C(C)O1 (stereo unspecified) = 0.0
COC(=O)C(Cc1ccc(OC)cc1O)NC(=O)OC(C)(C)C (stereo unspecified) = 0.0
C1CN(c2nc3c(nnc4nc(N5CCOCC5)sc43)s2)CCO1 = 0.0
O=C1c2ccccc2-c2nc3ccc(O)cc3n21 = 0.0
CC1OC(CC(=O)O)Cc2c(O)c3c(c(O)c21)C(=O)C=C(C1=CC(=O)c2c(O)c4c(c(O)c2C1=O)CC(CC(=O)O)OC4C)C3=O (stereo unspecified) = 0.0
OCC(O)C(O)C(C=NNc1ncnc2ccc(Br)cc12)=NNc1ncnc2ccc(Br)cc12 (stereo unspecified) = 1.0
Brc1ccc2c([C@H]3CN[C@@H](c4c[nH]c5cc(Br)ccc45)CN3)c[nH]c2c1 = 0.0
COc1ccc(OC)c(C2CCc3nc4nc(N)nc(N)c4cc3C2)c1 (stereo unspecified) = 0.0

src = ChEMBL document CHEMBL1201862
